biological target: T1, human glucagon receptor (GCGr) (Homo sapiens, UniProt P47871); test: BSA-cAMP assay, cells expressing human glucagon receptor; format: cell-based; details: Batch 1, read-out: hGCGr cAMP activity EC50
T1 construct: expressed in transfected cells; host or cells: HEK293s or CHO cells
T1 sequence (P47871 26-477): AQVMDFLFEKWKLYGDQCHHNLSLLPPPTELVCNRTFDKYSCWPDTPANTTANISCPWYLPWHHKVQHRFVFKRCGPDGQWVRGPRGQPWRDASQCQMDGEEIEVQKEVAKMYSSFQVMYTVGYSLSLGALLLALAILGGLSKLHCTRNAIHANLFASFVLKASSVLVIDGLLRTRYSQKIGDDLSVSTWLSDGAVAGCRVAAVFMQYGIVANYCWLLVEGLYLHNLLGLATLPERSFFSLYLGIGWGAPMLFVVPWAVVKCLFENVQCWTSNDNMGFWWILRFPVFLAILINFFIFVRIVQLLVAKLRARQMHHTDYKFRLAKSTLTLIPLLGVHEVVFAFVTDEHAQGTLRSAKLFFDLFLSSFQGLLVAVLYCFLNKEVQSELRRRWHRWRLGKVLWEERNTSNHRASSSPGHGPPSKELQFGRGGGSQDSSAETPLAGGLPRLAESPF
Reported EC50 values are given for each entry in this list.

Record excerpt, results attached:
IP312 (protein) YSEGTFISDVSSYMERQAIDEFIAWLLKGGAAAGGSGSTASSGSGSATGGGGAATHTCPPC; > 5.31 µM
IP378 (protein) YSEGTFTSLYRILLERQAIDEFIAWLLKGGAAAGGSGSTASSGSGSATGGGGAATHTCPPC; > 2.25 µM

## Task Quick check: EC50 of IP394 (protein) YSEGMHTSDLSKLLERQAIDEFIAWLLKGGAAAGGSGSTASSGSGSATGGGGAATHTCPPC ?
## Result > 17.6 µM
